Target: DNA topoisomerase II (Homo sapiens, UniProt P11388+Q02880)
Assay: Tested for inhibitory activity against Topoisomerase II isolated from HeLa cells by using SDS-K+ precipitation method
Format: cell-based
# EC50 listing for each entry below
Kindly provide the numeric value in µM only, without the unit symbol.

Worked examples follow.
C[C@H]1COc2c(-c3ccncc3)c(F)cc3c(=O)c(C(=O)O)cn1c23 : 57
Cc1cc(-c2c(F)c(F)c3c(=O)c(C(=O)O)cn4c3c2OC[C@@H]4C)cc(C)n1 : 50
Cc1cc(-c2c(F)cc3c(=O)c(C(=O)O)cn4c3c2OC[C@@H]4C)cc(C)n1 : 31

We now examine a further compound.
Please fill in: EC50 reported for Cc1cc(-c2c(F)cc3c(=O)c(C(=O)O)cn4c3c2NC[C@@H]4C)cc(C)n1 = 730

----------
Molecular target: DNA topoisomerase II (Homo sapiens, UniProt P11388+Q02880)
Test: Tested for inhibitory activity against Topoisomerase II isolated from HeLa cells by using SDS-K+ precipitation method
Type: cell-based
endpoint.label: log10 EC50 (log10 of the value in µM)
Kindly note that the scale is log10 and the underlying EC50 is in µM.

Cc1cc(-c2c(F)cc3c(=O)c(C(=O)O)cn4c3c2SC[C@@H]4C)cc(C)n1 : 0.97
Cc1cc(-c2c(F)cc3c(=O)c(C(=O)O)cn4c3c2OCC[C@@H]4C)cc(C)n1 : 2.18
Cc1cc(-c2c(F)cc3c(=O)c(C(=O)O)cn4c3c2OCC4(C)C)cc(C)n1 : 2.71
Cc1cc(-c2c(F)cc3c(=O)c(C(=O)O)cn4c3c2[S+]([O-])C[C@@H]4C)cc(C)n1 (some centres not stated) : 1.79
CC[C@H]1COc2c(-c3cc(C)nc(C)c3)c(F)cc3c(=O)c(C(=O)O)cn1c23 : 2.62

Bench note, DNA topoisomerase II (Homo sapiens, UniProt P11388+Q02880): C[C@H]1COc2c(-c3ccc4cnccc4c3)c(F)cc3c(=O)c(C(=O)O)cn1c23 , log10 EC50 reads 1.76

----------
# EC50 listing for each entry below
Target: DNA topoisomerase II (Homo sapiens, UniProt P11388+Q02880)
Assay: Tested for inhibitory activity against Topoisomerase II isolated from HeLa cells by using SDS-K+ precipitation method
Format: cell-based

Worked examples follow.
Cc1cc(-c2c(F)cc3c(=O)c(C(=O)O)cn4c3c2OC[C@H]4C)cc(C)n1 : > 540 µM
CCn1cc(C(=O)O)c(=O)c2cc(F)c(-c3cc(C)nc(C)c3)cc21 : > 570 µM

Please fill in: EC50 reported for Cc1cc(-c2c(F)cc3c(=O)c(C(=O)O)cn4c3c2SC[C@H]4C)cc(C)n1 = > 260 µM

Please fill in: EC50 reported for Cc1cc(-c2c(F)cc3c(=O)c(C(=O)O)cn4c3c2OCC42CC2)cc(C)n1 = > 130 µM

Please fill in: EC50 reported for Cc1cc(-c2c(F)cc3c(=O)c(C(=O)O)cn4c3c2OCC4)cc(C)n1.Cl = > 560 µM
